B1: CAMK2A (parent)
chain: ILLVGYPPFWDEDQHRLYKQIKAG

- Variants of: B1
- TEST_DESCRIPTION: protein stability index of a GFP-peptide fusion (GPS, HEK-293T) (PSI 1-6); higher = more stable;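 note: lentivirally expressed fusions sorted by FACS into six bins by GFP to DsRed ratio, PSI derived from sequencing read proportions per bin multiplied by bin number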
- CONDITION: c terminus: a fixed tail appended
Short version: protein stability index at least 2 is yes, less is no.

{"MUTANT_LABEL": "G5V", "ASSIGNED_LABEL": "yes"}
{"MUTANT_LABEL": "P8L", "ASSIGNED_LABEL": "no"}
{"MUTANT_LABEL": "G5K", "ASSIGNED_LABEL": "yes"}
{"MUTANT_LABEL": "L17V", "ASSIGNED_LABEL": "yes"}
{"MUTANT_LABEL": "L2F", "ASSIGNED_LABEL": "no"}
{"MUTANT_LABEL": "Q14D", "ASSIGNED_LABEL": "yes"}
{"MUTANT_LABEL": "H15A", "ASSIGNED_LABEL": "yes"}
{"MUTANT_LABEL": "P8C", "ASSIGNED_LABEL": "yes"}
{"MUTANT_LABEL": "H15W", "ASSIGNED_LABEL": "yes"}
{"MUTANT_LABEL": "Y18A", "ASSIGNED_LABEL": "yes"}
{"MUTANT_LABEL": "W10S", "ASSIGNED_LABEL": "yes"}
